# assay-info: in vivo
# condition-label: BALB/c, mouse, sc, 50 mg/kg
*1 amine or outer side, *2 acyl side, *3 side chain or, on linkers, in order; H or OH if unused. Where a SMILES comes first, the peptide text is derived from it. [ ]: non-standard residue; d: D form. The star is where a group is joined. X1 = O=C(C[C@H](N[*:1])c1ccc(O)cc1)[*:2]; dVal(3-OH) = CC(C)(O)[C@@H](N)C(=O)O; ΔIle(E) = CC/C(C)=C(/N)C(=O)O; Isovaleryl = CC(C)CC(=O)*; Agmatine = N=C(N)NCCCCN*; NMeA = CN[C@@H](C)C(=O)O; ΔVal = CC(C)=C(N)C(=O)O
experimental-readout: level at 0.5 h (ng/mL)
Please state the figure in ng/mL; there is no need to write the unit.

# input compound: CC/C(C)=C(/NC(=O)[C@H](NC(=O)[C@@H](NC(=O)[C@@H](CCCNC(=N)N)NC(=O)C(NC(=O)[C@H](NC(=O)C[C@H](NC(=O)[C@H](NC(=O)[C@H](NC(=O)[C@H](C)N(C)C(=O)[C@H](C)NC(=O)C(NC(=O)CC(C)C)=C(C)C)C(C)C)C(C)C)c1ccc(O)cc1)C(C)C)=C(C)C)C(C)C)C(C)C)C(=O)N[C@H](C)C(=O)N[C@@H](C(=O)NCCCCNC(=N)N)C(C)(C)O [MyxA, Myxovalargin A] (Isovaleryl-[ΔVal]A[NMeA][dV][dV][X1][dV][ΔVal][dR]V[dV][ΔIle(E)][dA][dVal(3-OH)]-Agmatine) ; wanted: its level at 0.5 h
5260
